Below: a set of entries, each annotated with reported melting point.

Examples with answers:
{"Compound": "CC(C)(CNC(=O)/C(CCO)=C(\\c1ccc(Cl)cc1)c1ccc(S(C)(=O)=O)cc1)SN=O [Example 10c]", "Observed Property": "melting point", "Experimental Value": "150 to 153 °C"}
{"Compound": "CCOC(=O)/C(CCO[N+](=O)[O-])=C(\\c1ccc(Cl)cc1)c1ccc(S(C)(=O)=O)cc1", "Observed Property": "melting point", "Experimental Value": "127 to 128 °C"}
{"Compound": "CS(=O)(=O)c1ccc(/C(=C(\\CCO[N+](=O)[O-])C(=O)O)c2ccc(Cl)cc2)cc1", "Observed Property": "melting point", "Experimental Value": "143 to 144 °C"}
{"Compound": "CC(=O)OC/C(=C(\\C(=O)N(C)CC(C)(C)SN=O)c1ccc(F)cc1)c1ccc(S(C)(=O)=O)cc1 [Example 13b]", "Observed Property": "melting point", "Experimental Value": "37 to 38 °C"}
{"Compound": "CCOC(=O)C1=Cc2cc(Cl)cc(CO[N+](=O)[O-])c2OC1C(F)(F)F (stereo not drawn)", "Observed Property": "melting point", "Experimental Value": "53 °C"}

Pending compound:
Name the recorded melting point for "COc1ccc2c(c1)c(CC(=O)NCC(C)(C)SN=O)c(C)n2C(=O)c1ccc(Cl)cc1" .
122 to 125 °C (dec.)

---

Molecular target: ovine COX-2 (Ovis aries)
Sequence (P79208 17-603): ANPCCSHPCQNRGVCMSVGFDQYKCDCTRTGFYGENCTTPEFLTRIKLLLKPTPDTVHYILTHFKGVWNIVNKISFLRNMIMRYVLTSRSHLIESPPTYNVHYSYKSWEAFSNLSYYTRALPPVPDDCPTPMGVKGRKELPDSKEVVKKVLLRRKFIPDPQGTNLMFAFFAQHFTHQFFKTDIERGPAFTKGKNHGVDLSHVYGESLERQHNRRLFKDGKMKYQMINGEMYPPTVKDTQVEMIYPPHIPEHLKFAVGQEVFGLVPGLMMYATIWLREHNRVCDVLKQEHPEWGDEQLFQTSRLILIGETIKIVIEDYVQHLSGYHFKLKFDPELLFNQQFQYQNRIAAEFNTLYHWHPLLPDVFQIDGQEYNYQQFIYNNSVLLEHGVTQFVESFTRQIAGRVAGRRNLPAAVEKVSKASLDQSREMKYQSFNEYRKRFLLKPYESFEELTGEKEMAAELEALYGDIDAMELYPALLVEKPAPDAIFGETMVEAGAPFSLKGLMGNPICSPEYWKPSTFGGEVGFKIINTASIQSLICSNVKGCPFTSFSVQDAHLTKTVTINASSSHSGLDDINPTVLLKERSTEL
Experiment: biochemical
Format: biochemical
Conditions: ovine COX-2; read-out: COX-2 IC50
Below: a set of entries, each annotated with reported IC50.
Respond with the bare value in µM.

Examples with answers:
{"Compound": "Cc1onc(-c2ccccc2)c1-c1ccc(S(=O)(=O)NC(=O)CCC(=O)OCCC2(SN=O)CCN(C)CC2)cc1.O=C(O)CC(O)(CC(=O)O)C(=O)O [Example 3g, Citrate Salt]", "Observed Property": "IC50", "Experimental Value": 70}
{"Compound": "CS(=O)(=O)c1ccc(-c2nc3cc(CO)ccn3c2-c2ccc(F)cc2)cc1 [Example 5a, reference compound]", "Observed Property": "IC50", "Experimental Value": 12}

Pending compound:
Name the recorded IC50 for "NS(=O)(=O)c1ccc(-n2nc(CO[N+](=O)[O-])cc2-c2ccc(Cl)cc2)cc1" .
10

---

Below: a set of entries, each annotated with reported inhibition at 10 µM.
Target: human COX-2 (Homo sapiens, UniProt P35354)
Construct: purchased Cayman Chemical, Ann Arbor, Mich
Sequence (P35354 18-604): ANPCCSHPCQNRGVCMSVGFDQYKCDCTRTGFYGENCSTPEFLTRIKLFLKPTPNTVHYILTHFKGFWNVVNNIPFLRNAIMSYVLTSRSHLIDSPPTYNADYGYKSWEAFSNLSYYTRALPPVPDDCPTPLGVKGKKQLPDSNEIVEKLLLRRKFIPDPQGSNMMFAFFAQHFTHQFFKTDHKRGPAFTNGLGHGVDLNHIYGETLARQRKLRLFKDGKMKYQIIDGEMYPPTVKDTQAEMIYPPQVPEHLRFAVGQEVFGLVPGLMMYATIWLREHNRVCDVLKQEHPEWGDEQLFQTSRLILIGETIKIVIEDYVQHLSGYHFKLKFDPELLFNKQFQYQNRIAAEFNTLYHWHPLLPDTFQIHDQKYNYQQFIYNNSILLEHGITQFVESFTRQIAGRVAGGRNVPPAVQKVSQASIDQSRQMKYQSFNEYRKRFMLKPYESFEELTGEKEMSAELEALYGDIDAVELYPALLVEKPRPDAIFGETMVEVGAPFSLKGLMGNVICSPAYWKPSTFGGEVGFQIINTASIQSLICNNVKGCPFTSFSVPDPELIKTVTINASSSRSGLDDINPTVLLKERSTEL
Experiment: Assay for human COX-2 activity (COX Inhibitor Screening Assay, Cayman)
Assay type: biochemical
Details: human COX-2, at 10 μM
Respond with the bare value in %.

{"Compound": "CS(=O)(=O)c1ccc(-c2c(Cc3ccccc3)cnn2CCO)cc1 [Example 19d]", "Experimental Value": 100}
{"Compound": "NS(=O)(=O)c1ccc(-c2c(-c3ccccc3)noc2CO[N+](=O)[O-])cc1", "Experimental Value": 100}
{"Compound": "CS(=O)(=O)c1ccc(-c2c(Cc3ccccc3)cnn2CCO[N+](=O)[O-])cc1 [Example 19e]", "Experimental Value": 100}

Name the recorded inhibition at 10 µM for CS(=O)(=O)c1ccc(-c2cc(CO)nn2C2CCCCC2)cc1 [Example 20d] .
34
